target_or_test_system: recombinant HCV NS5B (HCV RNA-dependent RNA polymerase) (Hepatitis C virus genotype 1b)
Sequence (P26663 2420-3010 limits assumed): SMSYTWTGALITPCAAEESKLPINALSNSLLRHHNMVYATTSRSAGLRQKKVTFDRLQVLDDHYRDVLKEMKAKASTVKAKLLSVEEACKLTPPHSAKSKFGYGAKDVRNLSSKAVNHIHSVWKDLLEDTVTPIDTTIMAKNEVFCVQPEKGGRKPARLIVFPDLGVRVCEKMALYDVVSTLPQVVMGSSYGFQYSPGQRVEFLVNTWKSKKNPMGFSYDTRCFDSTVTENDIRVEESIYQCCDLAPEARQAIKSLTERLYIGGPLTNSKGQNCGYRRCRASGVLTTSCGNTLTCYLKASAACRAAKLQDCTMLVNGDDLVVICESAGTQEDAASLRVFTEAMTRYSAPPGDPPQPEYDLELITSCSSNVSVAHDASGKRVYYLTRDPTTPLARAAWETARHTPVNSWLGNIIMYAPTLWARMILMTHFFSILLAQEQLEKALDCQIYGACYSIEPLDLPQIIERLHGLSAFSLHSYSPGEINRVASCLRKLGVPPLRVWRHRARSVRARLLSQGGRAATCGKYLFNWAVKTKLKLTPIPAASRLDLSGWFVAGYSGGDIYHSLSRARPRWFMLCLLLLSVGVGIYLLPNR
test_method_notes: biochemical
test_conditions: related polymerase activity (Example 27 list); read-out: IC50
Counter-ions that a name gives are not always drawn.

| compound | target_or_test_system | IC50 |
| --- | --- | --- |
| Cc1ccc(C(=O)N(C)c2cc(-c3cccc(O)c3)sc2C(=O)O)cc1 [Compound 273] | recombinant HCV NS5B (HCV RNA-dependent RNA polymerase) (Hepatitis C virus genotype 1b) | < 5 µM |
| Cc1ccc(C)c(S(=O)(=O)Nc2cc(-c3ccccc3)sc2C(=O)O)c1 [Compound 21] | recombinant HCV NS5B (HCV RNA-dependent RNA polymerase) (Hepatitis C virus genotype 1b) | 5 to 20 µM |
| Cc1ccccc1S(=O)(=O)Nc1cc(-c2ccc3c(c2)OCO3)sc1C(=O)O [Compound 202] | recombinant HCV NS5B (HCV RNA-dependent RNA polymerase) (Hepatitis C virus genotype 1b) | < 5 µM |
| Cc1ccccc1S(=O)(=O)Nc1cc(-c2ccc(NS(C)(=O)=O)cc2)sc1C(=O)O [Compound 369] | recombinant HCV NS5B (HCV RNA-dependent RNA polymerase) (Hepatitis C virus genotype 1b) | 5 to 20 µM |
| CN(C(=O)c1cc2ccccc2o1)c1cc(-c2ccccc2)sc1C(=O)O [Compound 130] | recombinant HCV NS5B (HCV RNA-dependent RNA polymerase) (Hepatitis C virus genotype 1b) | > 20 µM |
| Cc1ccc(S(=O)(=O)Nc2cc(-c3ccc(C#N)cc3)sc2C(=O)O)cc1 [Compound 290] | recombinant HCV NS5B (HCV RNA-dependent RNA polymerase) (Hepatitis C virus genotype 1b) | 5 to 20 µM |
| Cc1ccccc1S(=O)(=O)Nc1cc(-c2cccc(O)c2)sc1C(=O)O [Compound 171] | recombinant HCV NS5B (HCV RNA-dependent RNA polymerase) (Hepatitis C virus genotype 1b) | < 5 µM |
| Cc1ccccc1C(=O)N(C)c1cc(-c2ccccc2)sc1C(=O)O [Compound 97] | recombinant HCV NS5B (HCV RNA-dependent RNA polymerase) (Hepatitis C virus genotype 1b) | > 20 µM |
| Cc1ccc(C(=O)N(c2cc(-c3ccccc3)sc2C(=O)O)C2CCN(C(=O)OC(C)(C)C)CC2)cc1 [Compound 364] | recombinant HCV NS5B (HCV RNA-dependent RNA polymerase) (Hepatitis C virus genotype 1b) | < 5 µM |
| CN(C(=O)c1ccc(F)cc1F)c1cc(-c2ccccc2)sc1C(=O)O [Compound 78] | recombinant HCV NS5B (HCV RNA-dependent RNA polymerase) (Hepatitis C virus genotype 1b) | 5 to 20 µM |
| CC(C)N(C(=O)c1ccc(Cl)cc1[N+](=O)[O-])c1cc(-c2ccccc2)sc1C(=O)O [Compound 329] | recombinant HCV NS5B (HCV RNA-dependent RNA polymerase) (Hepatitis C virus genotype 1b) | < 5 µM |
| CC(C)CC(=O)N(C)c1cc(-c2ccccc2)sc1C(=O)O [Compound 172] | recombinant HCV NS5B (HCV RNA-dependent RNA polymerase) (Hepatitis C virus genotype 1b) | < 5 µM |
| O=C(O)c1sc(-c2ccccc2)cc1NS(=O)(=O)c1ccc(F)c(F)c1 [Compound 143] | recombinant HCV NS5B (HCV RNA-dependent RNA polymerase) (Hepatitis C virus genotype 1b) | < 5 µM |
| Cc1ccccc1S(=O)(=O)Nc1cc(-c2ccc(S(C)(=O)=O)cc2)sc1C(=O)O [Compound 89] | recombinant HCV NS5B (HCV RNA-dependent RNA polymerase) (Hepatitis C virus genotype 1b) | < 5 µM |
| CCOC(=O)c1c(C)[nH]c(C)c1S(=O)(=O)Nc1cc(-c2ccccc2)sc1C(=O)O [Compound 167] | recombinant HCV NS5B (HCV RNA-dependent RNA polymerase) (Hepatitis C virus genotype 1b) | 5 to 20 µM |
| Cc1ccccc1C(=O)Nc1cc(-c2ccccc2)sc1C(=O)O [Compound 96] | recombinant HCV NS5B (HCV RNA-dependent RNA polymerase) (Hepatitis C virus genotype 1b) | 5 to 20 µM |
| Cc1cccc(N2CCN(C(=O)Nc3cc(-c4ccccc4)sc3C(=O)O)CC2)n1 [Compound 182, HYDROCHLORIDE] | recombinant HCV NS5B (HCV RNA-dependent RNA polymerase) (Hepatitis C virus genotype 1b) | 5 to 20 µM |

---

Each entry below carries its reported pIC50.
target_or_test_system: recombinant HCV NS5B (HCV RNA-dependent RNA polymerase) (Hepatitis C virus genotype 1b)
test_method_notes: biochemical
test_conditions: related polymerase activity (Example 27 list); read-out: IC50
pIC50: −log10 of the molar value.
observed_property: pIC50

| smiles | observed_property | data_value |
| --- | --- | --- |
| Cc1cccc(C)c1N1CCN(C(=O)Nc2cc(-c3ccccc3)sc2C(=O)O)CC1 | pIC50 | < 4.70 |
| CN(C(=O)c1cc2ccccc2s1)c1cc(-c2ccccc2)sc1C(=O)O | pIC50 | 4.70 to 5.30 |
| Cc1ccc(-c2cc(NS(=O)(=O)c3ccc(F)cc3F)c(C(=O)O)s2)cc1 | pIC50 | > 5.30 |
| Cc1ccccc1S(=O)(=O)Nc1cc(-c2ccc(OC(F)(F)F)cc2)sc1C(=O)O | pIC50 | > 5.30 |
| Cc1ccccc1S(=O)(=O)Nc1cc(-c2cccc(OC(F)(F)F)c2)sc1C(=O)O | pIC50 | 4.70 to 5.30 |
| CC(C)N(C(=O)c1ccc(Cl)cc1Br)c1cc(-c2ccccc2)sc1C(=O)O | pIC50 | > 5.30 |
| CC(C)N(C(=O)c1ccc(C(F)(F)F)cc1)c1cc(-c2ccccc2)sc1C(=O)O | pIC50 | > 5.30 |
| Cc1cc(Cl)ccc1S(=O)(=O)Nc1cc(-c2ccccc2)sc1C(=O)O | pIC50 | > 5.30 |
| Cc1ccc(C(=O)N(C)c2cc(-c3ccccc3)sc2C(=O)O)cc1[N+](=O)[O-] | pIC50 | 4.70 to 5.30 |
| O=C(O)c1sc(-c2ccccc2)cc1N(C(=O)c1ccc(Cl)cc1Cl)c1ccccc1 | pIC50 | > 5.30 |
| CC(C)N(C(=O)c1ccc(Cl)nc1Cl)c1cc(-c2ccccc2)sc1C(=O)O | pIC50 | 4.70 to 5.30 |
| O=C(O)c1sc(-c2ccccc2)cc1NS(=O)(=O)c1cccc(Cl)c1 | pIC50 | > 5.30 |
| O=C(O)c1sc(-c2ccccc2)cc1NS(=O)(=O)c1ccc(F)cc1C(F)(F)F | pIC50 | 4.70 to 5.30 |
| O=C(O)c1sc(-c2ccccc2)cc1NS(=O)(=O)c1ccccc1[N+](=O)[O-] | pIC50 | > 5.30 |
| Cc1ccc(C(=O)N(Cc2cccc(C(F)(F)F)c2)c2cc(-c3ccccc3)sc2C(=O)O)cc1 | pIC50 | > 5.30 |
| C=CCN(C(=O)Cc1ccc(Cl)cc1)c1cc(-c2ccccc2)sc1C(=O)O | pIC50 | 4.70 to 5.30 |
| Cc1ccc(S(=O)(=O)Nc2cc(-c3ccc(C(N)=O)cc3)sc2C(=O)O)cc1 | pIC50 | > 5.30 |
| Cc1ccccc1S(=O)(=O)Nc1cc(-c2cccc(F)c2)sc1C(=O)O | pIC50 | > 5.30 |
| Cc1ccccc1S(=O)(=O)Nc1cc(-c2ccc3[nH]ccc3c2)sc1C(=O)O | pIC50 | 4.70 to 5.30 |
| Cc1ccccc1S(=O)(=O)Nc1cc(-c2cccc3cccnc23)sc1C(=O)O | pIC50 | < 4.70 |
| Cc1ccccc1S(=O)(=O)Nc1cc(-c2ccccc2C(=O)O)sc1C(=O)O | pIC50 | 4.70 to 5.30 |
| O=C(O)c1sc(-c2ccccc2)cc1NS(=O)(=O)c1ccc(C(F)(F)F)cc1 | pIC50 | > 5.30 |
| O=C(O)c1sc(-c2ccccc2)cc1NS(=O)(=O)c1ccc(Cl)cc1 | pIC50 | > 5.30 |
| CCCCCc1ccc(S(=O)(=O)Nc2cc(-c3ccccc3)sc2C(=O)O)cc1 | pIC50 | 4.70 to 5.30 |
| C#Cc1cc(NS(=O)(=O)c2ccccc2C)c(C(=O)O)s1 | pIC50 | 4.70 to 5.30 |
| O=C(O)c1sc(-c2ccccc2)cc1NC(=O)N1CCN(c2cccc(Cl)c2)CC1 | pIC50 | 4.70 to 5.30 |
| CC(C)(C)c1ccc(S(=O)(=O)Nc2cc(-c3ccccc3)sc2C(=O)O)cc1 | pIC50 | 4.70 to 5.30 |
| Cc1ccc(S(=O)(=O)N(c2cc(-c3ccccc3)sc2C(=O)O)C(C)C)c(C)c1 | pIC50 | 4.70 to 5.30 |
| CC(C)N(C(=O)c1ccc(Cl)cc1)c1cc(-c2ccccc2)sc1C(=O)O | pIC50 | > 5.30 |
| CC(C)N(C(=O)c1ccc(Cl)cc1Cl)c1cc(-c2cccc(C(F)(F)F)c2)sc1C(=O)O | pIC50 | > 5.30 |
| C=CCN(C(=O)Cc1ccc2ccccc2c1)c1cc(-c2ccccc2)sc1C(=O)O | pIC50 | < 4.70 |
| O=C(O)c1sc(-c2ccccc2)cc1NS(=O)(=O)c1ccc(F)c(C(F)(F)F)c1 | pIC50 | 4.70 to 5.30 |
| Cc1cccc(-c2cc(NS(=O)(=O)c3ccccc3C)c(C(=O)O)s2)c1 | pIC50 | > 5.30 |
